Every entry's value here was drawn from PubChem BioAssay (NCI).

- System: MALME-3M melanoma
- EXPERIMENTAL_PROTOCOL: NCI-60 one-dose screen, 48 h (100 = growth as untreated, 0 = no growth, -100 = all killed)
- CONDITION_PARAMETERS: 10 µM
The panel holds about 83,000 compounds, 20% with a hit somewhere; the sample as a whole holds those more often.
REPORTED_METRIC: growth (%)
Write down the numeric answer in % and omit the unit.

The cases that follow already have their growth on record.
Nc1ccccc1NC(=O)CCCCCCC(=O)Nc1ccc2c(c1)/C(=C/c1ccc[nH]1)C(=O)N2    20
CC(C)C(C)C(N)C(=O)O (stereo unspecified)    95.9
Nc1c(CNCc2nnn(Cc3ccccc3)c2N)nnn1Cc1ccccc1    79.9
O=[N+]([O-])c1ccc(Br)o1    104
Cc1cc(=O)oc2cc(OCc3cn(CC(O)CO)nn3)ccc12 (stereo unspecified)    109

// next item, growth requested
### Prompt Query growth for C[C@H](NC(=O)[C@@H]1CSSC[C@@H](NC(=O)Cc2nc3ccccc3cc2O)C(=O)NCC(=O)N1C)c1ccccc1
### Response 125
